Target: 14-3-3σ/C-RAF (Homo sapiens, UniProt P31947)
Construct: The 14-3-3 σ isoform (full-length for mass spectrometry and fluorescence anisotropy assays, ΔC for crystallography); made in house; host or cells: E. coli Rosetta 2(DE3)pLysS, pPROEX HTb vector
Sequence (P31947 whole entry, canonical isoform): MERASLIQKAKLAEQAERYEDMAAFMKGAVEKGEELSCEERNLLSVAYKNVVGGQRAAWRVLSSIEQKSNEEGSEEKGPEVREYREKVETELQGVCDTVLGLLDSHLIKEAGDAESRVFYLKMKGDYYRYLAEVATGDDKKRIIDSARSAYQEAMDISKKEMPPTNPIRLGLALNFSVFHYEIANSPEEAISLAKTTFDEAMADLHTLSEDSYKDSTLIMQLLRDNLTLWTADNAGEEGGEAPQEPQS
Test: Mass spectrometry dose response, compound binding to 14-3-3σ in the presence of C-RAF phosphopeptide
Settings: 100 nM compound, 100 nM 14-3-3σ, C-RAF peptide 18 µM, head prints 24h
Lab note: compare Percentage (%) bound of compound to 14-3-3σ, CRAF 24h against 2%. Equal or greater, write fulfilled. Smaller, write not fulfilled.

>>> class_label("O=C(CCl)NCC1CCN(C(=O)C2(Nc3ccc(Cl)cc3)CCOCC2)CC1")
"fulfilled"
>>> class_label("O=C(CCl)NCCCC1CCN(C(=O)C2(Nc3ccc(Cl)cc3)CCOCC2)CC1")
"fulfilled"
>>> class_label("O=C(CCl)NCCC1CCN(C(=O)C2(Nc3ccc(Cl)cc3)CCOCC2)CC1")
"not fulfilled"
>>> class_label("O=C(CCl)NCC1CCN(C(=O)C2(Oc3ccc(Cl)cc3)CCCCC2)CC1")
"fulfilled"
>>> class_label("CC(C)(Nc1ccccc1)C(=O)N1CCC(CNC(=O)CCl)CC1")
"not fulfilled"
>>> class_label("Cl.O=C(CCl)NCC1CCN(C(=O)C2(Nc3ccccc3)CCNCC2)CC1")
"not fulfilled"
>>> class_label("O=C(CCl)N1CCC2(CC1)CC(NC(=O)C1(Nc3ccc(Cl)cc3)CCOCC1)C2")
"fulfilled"

====

Molecular target: 14-3-3σ (Homo sapiens, UniProt P31947)
Construct: The 14-3-3 σ isoform (full-length for mass spectrometry and fluorescence anisotropy assays, ΔC for crystallography); made in house; host or cells: E. coli Rosetta 2(DE3)pLysS, pPROEX HTb vector
Assay: Mass spectrometry dose response, compound binding to 14-3-3σ in the absence of peptide (apo)
Settings: 100 nM compound, 100 nM 14-3-3σ, 1h
Entries annotated with measured Percentage (%) bound of compound to 14-3-3σ, APO 1h
MEASUREMENT KIND: Percentage (%) bound of compound to 14-3-3σ, APO 1h

>>> obs_value("CC1CC(Nc2ccc(Cl)cc2)(C(=O)NCC2CC3(CCN(C(=O)CCl)CC3)C2)CC(C)O1 (stereo not shown)")
"1.4%"
>>> obs_value("O=C(CCl)NCC1CC2(CCN(C(=O)C3(Nc4ccc(Cl)cc4)CCOCC3)CC2)C1")
"1.0%"
>>> obs_value("Cl.NC1CCC(Nc2ccccc2)(C(=O)N2CCC(CNC(=O)CCl)CC2)CC1 (stereo not shown)")
"0%"
>>> obs_value("NC1CCC(Oc2ccc(Cl)cc2)(C(=O)N2CCC(CNC(=O)CCl)CC2)CC1 (stereo not shown)")
"0.8%"
>>> obs_value("O=C(CCl)N1CCC2(CC1)CC(NC(=O)C1(Nc3ccc(Cl)cc3)CCOCC1)C2")
"5.6%"
>>> obs_value("O=C(CCl)NCC1CCN(C(=O)C2(Nc3ccc(Cl)cc3)CCCCC2)CC1")
"0.0%"
>>> obs_value("O=C(CCl)N1CCC2(CC1)CN(C(=O)C1(Nc3ccc(Cl)cc3)CCOCC1)C2")
"0%"
>>> obs_value("O=C(CCl)NCC1CCN(C(=O)C2(Nc3ccc(Cl)cc3)CCNCC2)CC1")
"1.4%"
>>> obs_value("O=C(CCl)NCC1CCN(C(=O)C2(Oc3ccccc3)CCCC2)CC1")
"0%"
>>> obs_value("O=C(CCl)NCC1CCN(C(=O)C2(Oc3ccc(Cl)cc3)CCCCC2)CC1")
"0%"
>>> obs_value("CC(C)(Nc1ccc(Cl)cc1)C(=O)N1CCC(CNC(=O)CCl)CC1")
"0%"
>>> obs_value("O=C(CCl)NCCCC1CCN(C(=O)C2(Nc3ccc(Cl)cc3)CCOCC2)CC1")
"0.6%"
>>> obs_value("CC(C)(Oc1ccc(Cl)cc1)C(=O)N1CCC(NC(=O)CCl)CC1")
"0%"
>>> obs_value("O=C(CCl)NCC1CCN(C(=O)C2(Nc3ccc(Cl)cc3)CCCC2)CC1")
"0%"
>>> obs_value("O=C(CCl)N1CCC2(CC1)CC(CNC(=O)C1(Nc3ccc(Cl)cc3)CCOCC1)C2")
"1.9%"
>>> obs_value("O=C(CCl)NCCC1CCN(C(=O)C2(Nc3ccc(Cl)cc3)CCOCC2)CC1")
"0%"
>>> obs_value("O=C(CCl)CCC1CCN(C(=O)C2(Nc3ccc(Cl)cc3)CCOCC2)CC1")
"18.0%"
>>> obs_value("CC1(C)CC(Nc2ccc(Cl)cc2)(C(=O)N2CCC(CNC(=O)CCl)CC2)CC(C)(C)O1")
"0%"
>>> obs_value("O=C(CCl)NCCCC1CCN(C(=O)C2(Nc3ccc(Cl)cc3)CCNCC2)CC1")
"4.7%"
>>> obs_value("NC1CCC(Nc2ccc(Cl)cc2)(C(=O)N2CCC(CNC(=O)CCl)CC2)CC1 (stereo not shown)")
"1.4%"
>>> obs_value("O=C(CCl)NCCC1CCN(C(=O)C2(Nc3ccc(Cl)cc3)CCNCC2)CC1")
"0%"
>>> obs_value("O=C(CCl)N1CCC2(CC1)CCN(C(=O)C1(Nc3ccc(Cl)cc3)CCOCC1)CC2")
"1.0%"
>>> obs_value("O=C(CCl)NCC1CCN(C(=O)C2(Nc3ccc(Cl)cc3)CCOCC2)CC1")
"0%"
>>> obs_value("O=C(CCl)NCC1CCN(C(=O)C2(Nc3ccccc3)CCCC2)CC1")
"0%"
>>> obs_value("CC(C)(Oc1ccc(Cl)cc1)C(=O)N1CCC(CCC(=O)CCl)CC1")
"12.0%"
>>> obs_value("O=C(CCl)NC1CC2(CCN(C(=O)C3(Nc4ccc(Cl)cc4)CCOCC3)CC2)C1")
"1.2%"
>>> obs_value("O=C(CCl)N1CC2(CCN(C(=O)C3(Nc4ccc(Cl)cc4)CCOCC3)CC2)C1")
"0%"
>>> obs_value("CC(C)(Oc1ccc(Cl)cc1)C(=O)N1CCC(CCCNC(=O)CCl)CC1")
"0%"
>>> obs_value("Cl.NC1CCC(Oc2ccccc2)(C(=O)N2CCC(CNC(=O)CCl)CC2)CC1 (stereo not shown)")
"0%"
>>> obs_value("O=C(CCl)NCC1CCN(C(=O)C2(Nc3ccccc3)CCC2)CC1")
"0%"
>>> obs_value("CC1CC(Nc2ccc(Cl)cc2)(C(=O)N2CCC(CNC(=O)CCl)CC2)CC(C)O1 (stereo not shown)")
"0.9%"
>>> obs_value("C=CS(=O)(=O)NCC1CCN(C(=O)C(C)(C)Oc2ccc(Cl)cc2)CC1")
"0%"
>>> obs_value("O=C(CCl)NCC1CCN(C(=O)C2(Nc3ccccc3)CCCCC2)CC1")
"0%"
>>> obs_value("O=C(CCl)NCC1CCN(C(=O)C2(Oc3ccc(Cl)cc3)CC2)CC1")
"0%"

All values here come from paper PMC10515640.
